- Test system: S. cerevisiae Mot1-301 ts growth rescue, BacTiter-Glo ATP luminescence
- test details: restored Mot1-301 yeast growth at 38.5C – whole organism, S. cerevisiae, Mot1-301 ts mutant, luminescence, dose retest, SUMOylation pathway inhibitor project, confirmation (AID 463204);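 note: growth at restrictive 38.5 degrees C of Mot1-301 OY566 strain; actives raise luminescence by restoring growth of the ts mutant at high temperature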
The source made the active and inactive calls.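 Rule for the calls: active = AC50 no more than ten times the top concentration tested, that is within one log above it; inconclusive = flat curve fit with activity between 30% and 70%, or invalid poor fit; inactive = AC50 beyond ten times the top tested dose.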
Please answer using one outcome listed in yes = active, no = inactive

Before answering, review these 5 worked examples.
compound: CCn1c(SC(=O)NC2CCCCC2)nnc1-c1cccs1
label class: yes
--
compound: Cc1ccc2nc(NC(=O)C3CCN(S(=O)(=O)c4cccnc4)CC3)sc2c1
label class: no
--
compound: Cc1ccc(CC2CC(=O)N(c3ccc4c(c3)OCCO4)C2=O)cc1 (stereo not given)
label class: no
--
compound: O=c1cc(C(F)(F)F)c2sc(N3CCCCC3)nc2[nH]1
label class: no
--
compound: CCOc1ccc(C)cc1S(=O)(=O)n1nc(C)cc1C
label class: no

Asked: Lab log entry: O=C(CN(CC1CCCO1)C(=O)CNS(=O)(=O)c1ccc(F)cc1)NCc1ccccc1 (stereo not given) — outcome as called in the assay?
Given back: no

Asked: Lab log entry: O=C1CCN(Cc2ccccc2)CCN1CCOc1ccccc1 — outcome as called in the assay?
Given back: no

Asked: Lab log entry: CCOC(=O)C1(Cc2cccc(OC)c2)CCCN(S(=O)(=O)c2cccnc2)C1 (stereo not given) — outcome as called in the assay?
Given back: no

Asked: Lab log entry: O=C(CCN1C(=O)S/C(=C/c2ccccc2)C1=O)Nc1ccc(O)c(C(=O)O)c1 — outcome as called in the assay?
Given back: no

Asked: Lab log entry: Cc1ccc(CNC(=O)c2ccc(N3CCC4(CC3)CC(c3ccccc3)=NO4)c(NC(=O)c3cccc(C)c3)c2)cc1 — outcome as called in the assay?
Given back: no
